Values from PubChem BioAssay AID1963858

test system: HOP-62 multicell spheroids with HUVEC/MSC, viability; assay: Anticancer human tumor HOP-62 cell line growth inhibition [KRAS2]; conditions: second compound 0.1 µM; first compound 3.16 µM; stronger effect = lower value;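 also: viability read after a week of compound exposure; 100% = DMSO vehicle-treated spheroids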
assayMetric: viability, T/C

| compound | viability, T/C |
| --- | --- |
| COc1cc2nccc(Oc3ccc(NC(=O)C4(C(=O)Nc5ccc(F)cc5)CC4)cc3)c2cc1OC + CC1OCC2(CCN(c3cnc(Sc4ccnc(N)c4Cl)c(N)n3)CC2)C1N | 77.8% |

Tell me its viability, T/C on HOP-62 multicell spheroids with HUVEC/MSC, viability: CC1COCCN1c1cc(-c2ccnn2C)c2ccnc(-c3ccn[nH]3)c2n1 (stereo not given) + C=CC(=O)N1CCN(c2nc(=O)n(-c3c(C)ccnc3C(C)C)c3nc(-c4c(O)cccc4F)c(F)cc23)C(C)C1
8.87%

State measured viability, T/C of the compound CC1(C)CCC(CN2CCN(c3ccc(C(=O)NS(=O)(=O)c4ccc(NCC5CCOCC5)c([N+](=O)[O-])c4)c(Oc4cnc5[nH]ccc5c4)c3)CC2)=C(c2ccc(Cl)cc2)C1 + CNCc1ccccc1-c1csc(C(C)Nc2nc(C)nc3cc(OC)c(OC)cc23)c1 with HOP-62 multicell spheroids with HUVEC/MSC, viability.
71.6%

Report its viability, T/C with HOP-62 multicell spheroids with HUVEC/MSC, viability as the test system: COC(=O)c1ccc2c(C(=Nc3ccc(N(C)C(=O)CN4CCN(C)CC4)cc3)c3ccccc3)c(O)[nH]c2c1 + CNCc1ccccc1-c1csc(C(C)Nc2nc(C)nc3cc(OC)c(OC)cc23)c1
29.5%

GET viability, T/C | system: HOP-62 multicell spheroids with HUVEC/MSC, viability | item: CC1OCC2(CCN(c3cnc(Sc4ccnc(N)c4Cl)c(N)n3)CC2)C1N (stereo not given) + COc1cc2nc(C)nc(NC(C)c3cc(N)cc(C(F)(F)F)c3)c2cc1OC1CCOC1
59.5%

* * *

System: HOP-62 multicell spheroids with HUVEC/MSC, viability
Test: Anticancer human tumor HOP-62 cell line growth inhibition [KRAS2];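 also: viability read after a week of compound exposure; 100% = DMSO vehicle-treated spheroids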
Conditions: second compound 0.1 µM; first compound 0.316 µM; stronger effect = lower value
Excerpt: Multicellular complex tumor spheroid response to RAS pathway inhibitors in combination with a targeted agents in patient-derived cell lines with oncogenic KRAS variants from multiple cancer types A high-throughput screen of multi-cell type tumor spheroids was designed to identify active combinations of targeted small molecules and KRAS pathway inhibitors. […] Compounds. […] If the clinical Cmax for an agent had not been determined, the highest concentration tested was 10 microM. […]
assayMetric: viability, T/C (%)
Write the value in % as a bare number.

| compound | viability, T/C [%] |
| --- | --- |
| O=C(c1cc(Cc2n[nH]c(=O)c3ccccc23)ccc1F)N1CCN(C(=O)C2CC2)CC1 + C=CC(=O)N1CCN(c2nc(OCC3CCCN3C)nc3c2CCN(c2cccc4cccc(C)c24)C3)CC1CC#N | 33.8 |
| O=C(c1cc(Cc2n[nH]c(=O)c3ccccc23)ccc1F)N1CCN(C(=O)C2CC2)CC1 + CNCc1ccccc1-c1csc(C(C)Nc2nc(C)nc3cc(OC)c(OC)cc23)c1 | 97.6 |

Look up and state reported viability, T/C for CCNC(=O)CC1N=C(c2ccc(Cl)cc2)c2cc(OC)ccc2-n2c(C)nnc21 (stereo not drawn) + C=CC(=O)N1CCN(c2nc(=O)n(-c3c(C)ccnc3C(C)C)c3nc(-c4c(O)cccc4F)c(F)cc23)C(C)C1
33.2
